Item-by-item account of protein stability index
Tested on: Saccharomyces cerevisiae
Method Summary: protein stability index of tFT-peptide fusion (C-terminal peptide) (PSI (0-1 scale)); higher = more stable (slower turnover);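 note: PSI is a weighted mean of sequencing reads over stability bins, variants kept only with over 10 reads, mCherry proximal and sfGFP distal, peptide attached via GGGS linker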
Recorded Conditions: genetic background: wild type; temperature: 30 C

Sequence Chain: LLILSVRPFVFV
Target Under Test: Saccharomyces cerevisiae
protein stability index: 0.367

Please fill in: protein stability index reported for "VAFGVASGWCWF" = 0.397

// recorded protein stability index for "FLLEVFVLGRTL" : 0.432

For reference, reported protein stability index for "EDRKRNKERRWT" stands at 0.303

Recorded protein stability index (sequence "VVQCRFPTPCVV" ): 0.376

Input "LWFRGGYLFFVV" . Output protein stability index: 0.185

The reported value for "VFLLFFFGLFVF" in terms of protein stability index is 0.314

Item: "GVVCVLGFALFV" | protein stability index: 0.3

get_value(item= "VSVFSLFLFLRV" , readout=protein stability index) returns 0.35

Briefly, protein stability index measured for "CSYPTLSMYSTT" : 0.645

====

Overview of recorded protein stability index for various sequences
Test system: Saccharomyces cerevisiae
Method Summary: protein stability index of tFT-peptide fusion (C-terminal peptide) (PSI (0-1 scale)); higher = more stable (slower turnover)
Recorded Conditions: genetic background: wild type; temperature: 30 C
Write the value as a bare number.

Sequence Chain: FGPRLLRVMRLL
protein stability index: 0.22

Here's the next entry for you.
Form field protein stability index, entry "YTSELPVLARRH" : 0.633

====

Tested on: Saccharomyces cerevisiae
Method Summary: protein stability index of tFT-peptide fusion (C-terminal peptide) (PSI (0-1 scale)); higher = more stable (slower turnover)
Recorded Conditions: genetic background: wild type; temperature: 30 C
Collected protein stability index values appear next to each entry.
# print the numeric value only

Some solved cases for reference:
Sequence Chain: FKQLKKKKKNRR
Reported Measurement: 0.741
//
Sequence Chain: LSLFSLSPSFSR
Reported Measurement: 0.718
//
Sequence Chain: LWGGVVGRVRGV
Reported Measurement: 0.635
//
Sequence Chain: QNVKRIVRHMLT
Reported Measurement: 0.374
//
Sequence Chain: QFCYSNPVSRYG
Reported Measurement: 0.69

# ---- query sequence ----
// recorded protein stability index for "SHTIVPNPLKLV" : 0.576

====

Below, each entry is listed with its recorded protein stability index.
Test system: Saccharomyces cerevisiae
Method Summary: protein stability index of tFT-peptide fusion (C-terminal peptide) (PSI (0-1 scale)); higher = more stable (slower turnover)
Recorded Conditions: genetic background: das1 deletion; temperature: 30 C

Known protein stability index results, listed for orientation:
Sequence Chain: SSFPGPPLPPDP
Measurement Label: protein stability index
Reported Measurement: 0.652
--
Sequence Chain: LGFSHTRAIFFV
Measurement Label: protein stability index
Reported Measurement: 0.605
--
Sequence Chain: CRLCVFGVWFCG
Measurement Label: protein stability index
Reported Measurement: 0.443
--
Sequence Chain: AFRFFWFFFFTS
Measurement Label: protein stability index
Reported Measurement: 0.466

Input "KKKNIYKVMKLE" . Output protein stability index: 0.646

Noted for "TFLVWSLMAGDR" : its protein stability index reads 0.447

Noted for "TRHIGQYIHKIT" : its protein stability index reads 0.635

protein stability index reported for this sequence "FGFFLFIFFFFR" : 0.301

Summary for this sequence, "SIIRHLFHPSST" : protein stability index is 0.643

Briefly, protein stability index measured for "LEVHGSCIFICV" : 0.359

Briefly, protein stability index measured for "CCSRFLMLRILV" : 0.287

Reported protein stability index ( "LWVTRVYCLLVC" ) = 0.168

In plain terms, "CIVFVYCLFSCP" has a documented protein stability index of 0.213

For reference, reported protein stability index for "RSKLGVLVILWF" stands at 0.293

# sequence "WCFGSLLIRFSL" ; its protein stability index = 0.453

The recorded protein stability index for "AFWLFSGIARLA" is 0.472

In plain terms, "EKKRERQKGEME" has a documented protein stability index of 0.611

Entry "SIRIIVVVRGAS" , protein stability index reported as 0.433

Given item "CSPAFRPIVFVL" , the value recorded as its protein stability index is 0.301

The reported value for "LAVVLVWVPGRW" in terms of protein stability index is 0.335

Reported protein stability index for "LYLGCVLFVLFR" was 0.216

Looking up "SFVCFFLNLFVY" , I see its protein stability index listed as 0.172

Notebook: "FYSLYLSLVCFN" , protein stability index read as 0.301

Item: "LPPSPPAPLSRL" | protein stability index: 0.81

protein stability index recorded for this sequence, "TSFLHLFVAAII" , is 0.499

Briefly, protein stability index measured for "WFFPVSPPVMAS" : 0.202

Per the records, this sequence ( "LLFGCLIRIGCS" ) has protein stability index equal to 0.244
